Answer each item with its documented inhibition.
target: Serine/threonine-protein kinase D1 (Homo sapiens); settings: at 1 µM;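 further: each value is an averaged percent inhibition of PRKD1 kinase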
Numbers only, in %.

Reference set, count: 4
smiles.str | measure.unit | inhibition
COc1cc(N2CCN(C(C)C)CC2)ccc1Nc1nc(Nc2cccc3ncccc23)c2cc[nH]c2n1 | % | 3.6
OCCCNc1nccc(-c2c(-c3ccc(F)cc3)nn3cc(C(F)(F)F)ccc23)n1 | % | 14.1
CN(c1ccc(NC(=O)NCCN2CCOCC2)cc1)c1ccnc(Nc2ccc(CS(C)(=O)=O)cc2)n1 | % | 1.78
CS(=O)(=O)CCNCc1ccoc1-c1ccc2ncnc(Nc3ccc(OCc4ccccc4)cc3)c2c1 | % | 2.33

Each compound below has a recorded value; state its inhibition.
1. CS(=O)(=O)Nc1ccc(-c2ccc3c(NC(=O)C4CC4)n[nH]c3c2)cc1
2. CNC(=O)c1ncccc1Nc1nc(Nc2cc3c(cc2OC)CCCN3C(=O)CN(C)C)nc2[nH]ccc12
3. NS(=O)(=O)c1cccc(N/C=C2\C(=O)Nc3ccccc32)c1
4. COc1cc(Nc2ncc(-c3ccccc3)o2)cc(OC)c1
5. CCN1CCC(C(=O)Nc2n[nH]c3nnc(-c4cccc(F)c4F)cc23)CC1

1. 4.68
2. 24.5
3. 11
4. 5.16
5. -0.6

###

molecular target: SRSF protein kinase 3 (Homo sapiens) (UniProt Q9UPE1); settings: at 0.1 µM;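 further: mean of replicate inhibition values against MSSK1 kinase, profiled within the GSK PKIS kinase inhibitor set screen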
Sequence (Q9UPE1 whole entry): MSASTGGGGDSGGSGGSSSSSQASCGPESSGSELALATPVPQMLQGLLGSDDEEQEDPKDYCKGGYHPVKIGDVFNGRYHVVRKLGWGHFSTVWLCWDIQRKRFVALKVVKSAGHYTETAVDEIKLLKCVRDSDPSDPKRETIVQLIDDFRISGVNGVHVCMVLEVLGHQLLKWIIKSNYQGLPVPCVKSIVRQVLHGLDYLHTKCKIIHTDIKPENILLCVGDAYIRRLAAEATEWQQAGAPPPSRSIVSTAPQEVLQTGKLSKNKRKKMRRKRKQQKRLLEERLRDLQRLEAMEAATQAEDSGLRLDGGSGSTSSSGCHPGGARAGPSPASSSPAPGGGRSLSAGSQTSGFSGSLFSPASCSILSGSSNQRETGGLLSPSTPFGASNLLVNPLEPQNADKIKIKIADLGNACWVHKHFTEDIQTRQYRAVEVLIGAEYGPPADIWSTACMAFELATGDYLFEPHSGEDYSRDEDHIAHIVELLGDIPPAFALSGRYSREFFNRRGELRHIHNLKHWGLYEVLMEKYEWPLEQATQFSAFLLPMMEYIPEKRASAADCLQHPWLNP
Please respond with reported inhibition for every item in the list.
Give bare numbers, in %.

compound | measure.unit | measured.result
CN1CCC(n2cnc(-c3ccc(F)cc3)c2-c2ccnc(NCCO)n2)CC1 | % | -0.9
CNC(=O)c1cncc(/C=C/c2ccccc2C)c1 | % | -0.87
FC(F)(F)CNc1nccc(-c2cnn3ncccc23)n1 | % | -4.16

For every listed record, write down its inhibition.
1. O=C(Nc1n[nH]c2nnc(-c3cccnc3)cc12)C1CC1
2. COc1ccccc1-c1cc(/C=C2\C(=O)Nc3ncc(Br)cc32)cc(Br)c1O
3. CC1(C)CC(n2cnc(-c3ccc(F)cc3)c2-c2ccnc(N)n2)CC(C)(C)N1
4. COc1ccc2ncn(-c3cc(O[C@H](C)c4ccccc4C(F)(F)F)c(C(N)=O)s3)c2c1
5. COc1cc2c(cc1Nc1nc(Nc3cccc(F)c3C(N)=O)c3cc[nH]c3n1)N(C(=O)CN1CCN(C(C)C)CC1)CC2
6. CC1=C(C(=O)Nc2ccc3[nH]ncc3c2)C(c2ccc(F)cc2)N=C(c2ccc(C(F)(F)F)nc2)N1 (centres undefined)
7. COc1ccc(Nc2ncc(-c3ccccc3)o2)cc1OC

[-0.02, 0.86, -0.06, -1.14, 4.88, 0.36, -1.82]

###

biological target: Testis-specific serine/threonine-protein kinase 2 (Homo sapiens) (UniProt Q96PF2); settings: at 1 µM;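 further: each value is the mean percent inhibition of TSSK2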
Sequence (Q96PF2 whole entry): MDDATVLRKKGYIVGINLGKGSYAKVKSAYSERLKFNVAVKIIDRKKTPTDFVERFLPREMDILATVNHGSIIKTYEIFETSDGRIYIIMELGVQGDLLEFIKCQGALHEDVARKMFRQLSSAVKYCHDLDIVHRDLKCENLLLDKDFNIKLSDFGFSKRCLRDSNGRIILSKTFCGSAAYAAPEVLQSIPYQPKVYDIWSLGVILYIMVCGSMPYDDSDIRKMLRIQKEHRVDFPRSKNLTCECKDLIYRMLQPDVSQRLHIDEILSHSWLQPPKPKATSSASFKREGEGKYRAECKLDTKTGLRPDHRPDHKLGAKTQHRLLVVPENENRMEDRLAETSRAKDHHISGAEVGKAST
What inhibition was measured for each of the following?
Numbers only, in %.

See these solved cases before continuing.
smiles.str | readout | measure.unit | measured.result
CS(=O)(=O)CCNCc1ccoc1-c1ccc2ncnc(Nc3ccc(OCc4ccccc4)cc3)c2c1 | inhibition | % | 0.75
FC(F)(F)CNc1nccc(-c2cnn3ncccc23)n1 | inhibition | % | -0.28
O=C(O[C@H]1CN[C@H](C#Cc2cc3ncnc(Nc4ccc5c(cnn5Cc5ccccc5)c4)c3s2)C1)N1CCOCC1 | inhibition | % | -1.3
CN(c1ccc(NC(=O)NCCN2CCOCC2)cc1)c1ccnc(Nc2ccc(CS(C)(=O)=O)cc2)n1 | inhibition | % | 3.15
O=C(Nc1n[nH]c2nnc(-c3cccnc3)cc12)C1CC1 | inhibition | % | 0.95

Batch: inhibition for all items listed.
1. CS(=O)(=O)CCNCc1ccc(-c2ccc3ncnc(Nc4ccc(OCc5ccccc5)cc4)c3c2)o1
2. Cc1cc(O)cc(C)c1/C=C/c1cncc(C(=O)OC(C)(C)C)c1
3. Cn1c(-c2nonc2N)nc2cnccc21
4. Fc1cccc(COc2ccc(Nc3ncncc3C#Cc3ccccc3)cc2Cl)c1
5. CS(=O)(=O)CCNCc1ccc(-c2ccc3ncnc(Nc4ccc(OCc5cccc(C(F)(F)F)c5)cc4)c3c2)o1
6. COc1ccc(Nc2ncc(-c3ccccc3)o2)cc1OC

2.17
1.69
0.12
4.25
2.41
0.02

Please state, for each entry, its recorded inhibition.
1. Cc1c2ccc(N(C)c3ccnc(Nc4cccc(S(N)(=O)=O)c4)n3)cc2nn1C
2. CCN1CCC(C(=O)Nc2n[nH]c3nnc(-c4cccc(F)c4F)cc23)CC1
3. CS(=O)(=O)Nc1ccc(-c2ccc3c(NC(=O)C4CC4)n[nH]c3c2)cc1

[1.14, 0.43, -0.76]

Hi there! I need inhibition for each item below, if you can.
1. COC(=O)Nc1nc2cc(Oc3ccc(NC(=O)Nc4ccccc4)cc3)ccc2[nH]1
2. OCCCNc1nccc(-c2c(-c3ccc(F)cc3)nn3cc(C(F)(F)F)ccc23)n1
3. NC(=O)c1ccc2c(-c3ccnc(NCCCO)n3)c(-c3ccc(F)cc3)nn2c1
4. COc1cc(N2CCN(C(C)C)CC2)ccc1Nc1nc(Nc2cccc3ncccc23)c2cc[nH]c2n1
5. CCCNc1cccc(-n2ncc3c(N/N=C/c4ccncc4)ncnc32)c1
6. CNC(=O)c1ncccc1Nc1nc(Nc2cc3c(cc2OC)CCCN3C(=O)CN(C)C)nc2[nH]ccc12

1: 4.11; 2: -2.79; 3: 2.23; 4: 11.3; 5: 3.17; 6: 73.2
